Target: T1, 4H535-AA
T1 chain: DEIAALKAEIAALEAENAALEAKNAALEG
Experiment: two-hybrid library CCmax;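 further: natural log of median RNA to DNA barcode read ratio; higher means stronger binding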
Details: mean of both orientations
Entries and their interaction score
quantity measured: interaction score

[[record]]
binder = "DEIAALEAKNAALKAKIAALEAKIAALKG [4H486-AA]"
quantity_measured = "interaction score"
recorded_number = -1.16

[[record]]
binder = "DENAALEAEIAALKAKIAALKAKNAALKG [4H1136-AA]"
quantity_measured = "interaction score"
recorded_number = 1.79

[[record]]
binder = "DEIAALEAKNAALKAENAALEAEIAALEG [4H465-AA]"
quantity_measured = "interaction score"
recorded_number = -1.58

[[record]]
binder = "DKNAALKAEIAALKAKNAALKAEIAALEG [4H3705-AA]"
quantity_measured = "interaction score"
recorded_number = -0.26

[[record]]
binder = "DKIAALKAKIAALKAENAALEAEIAALKG [4H2898-AA]"
quantity_measured = "interaction score"
recorded_number = 0.142

[[record]]
binder = "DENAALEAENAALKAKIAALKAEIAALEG [4H1257-AA]"
quantity_measured = "interaction score"
recorded_number = -1.14

[[record]]
binder = "DENAALEAEIAALKAENAALEAKIAALKG [4H1110-AA]"
quantity_measured = "interaction score"
recorded_number = -1.39


Source listed as paper PMC10397247.
